- measurement.protocol: clinical
- cond: human, in vivo, 300 mg, AUC0–8h
assay.metric: AUC(0-t) (ng·h/mL)
Answers are plain numbers, in ng·h/mL.

// lookup AUC(0-t) for CNC(=O)c1ccc2cc([C@@]3(O)CCn4cncc43)ccc2c1 [Orteronel]
14500
